- protocolDescription: Pharmacokinetic test in rats
- Assay type: in vivo, Sprague-Dawley rats
- conditions: male, Sprague-Dawley, plasma; rat, intravenous 5 mg/kg, mean; read-out: Vss
Recorded Vd, one value per entry.

compound | Vd [L/kg]
O=C(Nc1ccc(F)cc1)C1(C(=O)Nc2ccc(Oc3ccnc4cc(OCCCN5CCOCC5)ncc34)c(F)c2)CC1 [Compound 8S] | 0.667
O=C(Nc1ccc(F)cc1)C1(C(=O)Nc2ccc(Oc3ccnc4cc(OCCN5CCOCC5)ncc34)c(F)c2)CC1 [Compound 7S] | 0.346

* * *

Recorded IC50, one value per entry.
- tgt: c-Met kinase (Homo sapiens)
- Construct: c-Met kinase domain recombinant protein diluted with 49 μL of the reaction buffer was added
- Sequence (P08581 1078-1345 limits assumed): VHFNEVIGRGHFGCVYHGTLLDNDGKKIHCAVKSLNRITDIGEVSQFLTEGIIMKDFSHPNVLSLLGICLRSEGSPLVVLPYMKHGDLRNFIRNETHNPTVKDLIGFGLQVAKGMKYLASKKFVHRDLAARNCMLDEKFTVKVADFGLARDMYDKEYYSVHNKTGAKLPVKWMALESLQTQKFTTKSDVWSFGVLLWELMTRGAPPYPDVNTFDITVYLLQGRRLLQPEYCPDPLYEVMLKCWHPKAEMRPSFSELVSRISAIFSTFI
- protocolDescription: Inhibitory effect on c-Met kinase activity at molecular level (ELISA)
valueKind: IC50

compound | testValue
O=C(Nc1ccc(F)cc1)C1(C(=O)Nc2ccc(Oc3ccnc4nc(N5CCNCC5)cnc34)c(F)c2)CC1 [Compound 64S] | 1 to 10 nM
COC(=O)c1cccn(-c2ccc(Oc3ccnc4cc(OCCN5CCOCC5)ncc34)c(F)c2)c1=O [Compound 17S] | 1 to 10 nM
O=C(Nc1ccc(F)cc1)C1(C(=O)Nc2ccc(Oc3ccnc4cc(OCCN5CCOCC5)ncc34)cc2)CC1 [Compound 12S] | 1 to 10 nM
O=C(Nc1ccc(F)cc1)C1(C(=O)Nc2ccc(Oc3ccnc4cc(-c5cnoc5)ncc34)c(F)c2)CC1 [Compound 51S] | 1 to 10 nM
CN1CCC(COc2cc3nccc(Oc4ccc(NC(=O)C5(C(=O)Nc6ccc(F)cc6)CC5)cc4F)c3cn2)CC1 | 1 to 10 nM
O=C(Nc1ccc(F)cc1)C1(C(=O)Nc2ccc(Oc3ccnc4ncc(NCCCN5CCOCC5)nc34)c(F)c2)CC1 [Compound 63S] | 1 to 10 nM
COc1cc(NC(=O)C2(C(=O)Nc3ccc(Oc4ccnc5cc(OCCN6CCOCC6)ncc45)c(F)c3)CC2)ccc1F [Compound 24S] | 1 to 10 nM
O=C(Nc1ccc(F)c(F)c1)C1(C(=O)Nc2ccc(Oc3ccnc4cc(OCCN5CCOCC5)ncc34)c(F)c2)CC1 [Compound 23S] | 1 to 10 nM
O=C(Nc1ccc(F)cc1)C1(C(=O)Nc2ccc(Oc3ccnc4cc(Cn5ccnc5)ncc34)c(F)c2)CC1 [Compound 44S] | 10 to 100 nM
O=C(Nc1ccc(F)cc1)C1(C(=O)Nc2ccc(Oc3ccnc4nc(N5CCOCC5)cnc34)c(F)c2)CC1 [Compound 57S] | 10 to 100 nM
O=C(Nc1ccc(F)cc1)C1(C(=O)Nc2ccc(Oc3ccnc4cc(-c5ccc([N+](=O)[O-])cc5)ncc34)c(F)c2)CC1 [Compound 48S] | 10 to 100 nM
CN(C)c1cc2nccc(Oc3ccc(NC(=O)C4(C(=O)Nc5ccc(F)cc5)CC4)cc3F)c2cn1 | 1 to 10 nM
O=C(Nc1ccc(F)cc1)C1(C(=O)Nc2ccc(Oc3ccnc4cc(-c5ccncc5)ncc34)c(F)c2)CC1 [Compound 46S] | 1 to 10 nM
O=C(Nc1ccc(Oc2ccnc3cc(OCCN4CCOCC4)ncc23)c(F)c1)c1cccn(-c2ccc(F)cc2)c1=O [Compound 15S] | 1 to 10 nM

* * *

- tgt: c-Met kinase (Homo sapiens)
- Construct: c-Met kinase domain recombinant protein diluted with 49 μL of the reaction buffer was added
- protocolDescription: Inhibitory effect on c-Met kinase activity at molecular level (ELISA);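 also: recombinant c-Met kinase domain with 5 µM ATP, 1 h at 37 °C, substrate phosphorylation detected by anti-phosphotyrosine PY99 ELISA at 490 nm versus DMSO negative control, ATP-free wells as blank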
pIC50: −log10 of the molar value.
valueKind: pIC50

compound | testValue
O=C(Nc1ccc(F)cc1)C1(C(=O)Nc2ccc(Oc3ccnc4cc(-c5ccc(F)c(F)c5)ncc34)c(F)c2)CC1 [Compound 49S] | 8.00 to 9.00
Cn1cc(-c2cc3nccc(Oc4ccc(NC(=O)c5c[nH]cc(-c6ccc(F)cc6)c5=O)cc4F)c3cn2)cn1 [Compound 54S] | 8.00 to 9.00
O=C(Nc1ccc(F)cc1)C1(C(=O)Nc2ccc(Oc3ccnc4ncc(=O)[nH]c34)c(F)c2)CC1 [Compound 34S] | 6.00 to 7.00
CCN1CCC(Nc2cc3nccc(Oc4ccc(NC(=O)c5ccnn(-c6ccc(F)cc6)c5=O)cc4F)c3cn2)C(F)C1 (stereo not drawn) [Compound 35S] | 7.00 to 8.00
O=C(Nc1ccc(F)cc1)C1(C(=O)Nc2ccc(Nc3ccnc4cc(OCCN5CCOCC5)ncc34)cc2)CC1 [Compound 13S] | 8.00 to 9.00
O=C(Nc1ccc(F)cc1)C1(C(=O)Nc2ccc(Oc3ccnc4cc(Cl)ncc34)c(F)c2)CC1 | 5.00 to 6.00
